# Tested on: Musca domestica
# assay-procedure: Insecticidal activity against 3-day old Musca domestica (house fly) administered topically measured after 24 hr relative to (+)-haedoxan A
# Assay type: functional
reported-property: Ratio

In [3]: df
Out[3]:
                                   compound  reported_property  data_value
0  COc1cc2c(cc1[C@H]1OC[C@]3(O)[C@@H](Oc4c(OC)cccc4OC)OC[C@H]13)OC(CCl)CO2 (mixture of isomers)              Ratio       5e-05
1  COc1cc2c(cc1[C@H]1OC[C@]3(O)[C@@H](Oc4c(OC)cccc4OC)OC[C@H]13)OC(COC(C)(C)C)CO2 (mixture of isomers)              Ratio      0.0003
2  COc1cc2c(cc1[C@H]1OC[C@]3(O)[C@@H](Oc4c(OC)cccc4OC)OC[C@H]13)OCC(c1ccc3c(c1)OCO3)O2 (mixture of isomers)              Ratio      0.0003
3  COCC1COc2cc(OC)c([C@H]3OC[C@]4(O)[C@@H](Oc5c(OC)cccc5OC)OC[C@H]34)cc2O1 (mixture of isomers)              Ratio      0.0003
